Values compiled from patent US11739333B2.

Tested on: luciferase target gene expression in HEK 293 cells (aptamer-modulated RNase P cleavage of mRNA)
Assay: Firefly luciferase assay of transfected cells treated with or without aptamer ligand
Type: cell-based
Details: absence of guanine
endpoint: basal level luciferase activity

molecule: MG3: SEQ ID NO: 12; MG1 variant with 4 alternatively shared nucleotides (nucleic acid) CCTCATAAAGGCCAAGAAGGGCGGAAAGATCGCCGTGTAAGGATCCAAGACGAGCTGTACAAGTAAAGCGGCCAATTCGGACAAAAACGAGACGCTGGTGGCTGGCACTCCTGGTTTCCAGGACGGGGTTCAAGTCCCTGCGGTGTCTGTATAATCGCGTGGATATGGCACGCAAGTTTCTACCGGGCACCGTAAATGTCCGACTACAGACAATCTAGAGTCGACCTGCAGGCATGCAAGCTTCAGCTGCTCGAGGGCCCAGATCTAATTCACCCCACCAGTGCAGGCTGCCTATCAG
observedMeasurement: modest decrease
//
molecule: MG4: SEQ ID NO: 13; MG1 variant with 3 alternatively shared nucleotides (nucleic acid) CCTCATAAAGGCCAAGAAGGGCGGAAAGATCGCCGTGTAAGGATCCAAGACGAGCTGTACAAGTAAAGCGGCCAATTCGGACAAAAACGAGACGCTGGTGGCTGGCACTCCTGGTTTCCAGGACGGGGTTCAAGTCCCTGCGGTGTCTAGTATAATCGCGTGGATATGGCACGCAAGTTTCTACCGGGCACCGTAAATGTCCGACTACTAGACTTCTAGAGTCGACCTGCAGGCATGCAAGCTTCAGCTGCTCGAGGGCCCAGATCTAATTCACCCCACCAGTGCAGGCTGCCTATCAG
observedMeasurement: modest decrease
